Assign pIC50 to each entry below.
assay.system: CyclinB/cdk1 (Homo sapiens, UniProt P06493)
Construct: Monoclonal antibody against cyclinB (GNS1) is added to the supernatant; endogenous in cells
Sequence (P06493 whole entry): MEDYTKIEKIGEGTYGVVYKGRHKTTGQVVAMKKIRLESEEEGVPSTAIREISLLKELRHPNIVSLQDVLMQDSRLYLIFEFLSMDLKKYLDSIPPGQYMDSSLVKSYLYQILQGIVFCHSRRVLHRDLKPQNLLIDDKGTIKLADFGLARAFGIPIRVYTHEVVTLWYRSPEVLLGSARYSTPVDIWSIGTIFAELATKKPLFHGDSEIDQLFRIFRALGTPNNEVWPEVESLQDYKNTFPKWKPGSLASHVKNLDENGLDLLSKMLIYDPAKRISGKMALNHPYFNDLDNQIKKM
Sequence (P14635 whole entry partner): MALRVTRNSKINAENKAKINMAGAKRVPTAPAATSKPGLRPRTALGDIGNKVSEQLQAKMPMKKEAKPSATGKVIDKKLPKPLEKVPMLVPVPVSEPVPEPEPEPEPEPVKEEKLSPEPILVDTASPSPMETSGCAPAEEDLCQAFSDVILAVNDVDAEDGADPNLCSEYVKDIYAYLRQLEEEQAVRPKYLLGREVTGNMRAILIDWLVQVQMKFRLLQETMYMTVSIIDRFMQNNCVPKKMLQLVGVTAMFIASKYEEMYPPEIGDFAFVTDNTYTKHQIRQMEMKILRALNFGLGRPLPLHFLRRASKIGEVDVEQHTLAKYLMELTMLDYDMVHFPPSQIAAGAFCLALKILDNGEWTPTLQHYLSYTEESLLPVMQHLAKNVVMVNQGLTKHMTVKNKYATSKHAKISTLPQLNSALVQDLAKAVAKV
assay.procedure: CyclinB/cdk1 protein kinase assay (histone H1 phosphorylation)
run.parameters: complex immunopurified from HeLa cells; 15 μM ATP; replicate experiments
One number for each entry, as −log10 of the molar value.

Recorded pIC50, per entry:
compound	pIC50
Cc1ccc(-c2ccc(CNc3nc(N[C@H]4CC[C@H](N)CC4)nc4c3ncn4C(C)C)cc2)cc1	5.40
CC(C)n1cnc2c(NCc3ccc(-c4cccnc4)cc3)nc(N[C@H]3CC[C@H](N)CC3)nc21	6.00
CC(=O)N[C@H]1CC[C@H](Nc2nc(NCc3ccc(-c4ccccc4)nc3)c3ncn(C(C)C)c3n2)CC1	5.30
CC(C)n1cnc2c(NCc3ccc(-c4ccccc4)cc3)nc(N[C@@H]3CCCC[C@@H]3N)nc21 (racemic)	5.22
CC(C)n1cnc2c(NCc3ccc(-c4cccc(F)c4)cc3)nc(N[C@H]3CC[C@H](N)CC3)nc21	5.40

Batch lookup, pIC50 per entry.
1. CC(C)n1cnc2c(NCc3ccc(-c4ccccc4)cc3)nc(N[C@H]3CC[C@H](N)CC3)nc21
2. CC(C)n1cnc2c(NCc3ccc(-c4ccccn4)nc3)nc(N[C@H]3CC[C@H](N)CC3)nc21
3. CC(C)n1cnc2c(NCc3ccc(-c4ccccc4)cc3)nc(N[C@@H]3CCCC[C@H]3N)nc21 (racemic)
4. CC(=O)N[C@H]1CC[C@H](Nc2nc(NCc3ccc(-c4ccccn4)nc3)c3ncn(C(C)C)c3n2)CC1

OUT:
[5.22, 6.05, 4.92, 6.40]

* * *

Test system: COLO 205
assay.procedure: NCI 60-cell line growth inhibition assay
Assay type: cell-based
run.parameters: Homo sapiens; COLO 205 (Colon)
measured.endpoint: GI50

compound	assay.system	GI50
CC(=O)N[C@H]1CC[C@H](Nc2nc(NCc3ccc(-c4ccccn4)cc3)c3ncn(C(C)C)c3n2)CC1	COLO 205	< 10 nM
CC(C)n1cnc2c(NCc3ccc(-c4ccccn4)cc3)nc(N[C@H]3CC[C@H](N)CC3)nc21	COLO 205	< 10 nM
CC[C@H](CO)Nc1nc(NCc2ccc(-c3cccc([N+](=O)[O-])c3)cc2)c2ncn(C(C)C)c2n1	COLO 205	30 nM

Would you be so kind as to report GI50 for each listed record?
1. CC(C)n1cnc2c(NCc3ccc(-c4ccsc4)cc3)nc(N[C@H]3CC[C@H](N)CC3)nc21
2. Cn1cnc2c(NCc3ccccc3)nc(NCCO)nc21 [Olomoucine, reference compound]
3. CC[C@H](CO)Nc1nc(NCc2ccc(-c3ccc(OC)cc3)cc2)c2ncn(C(C)C)c2n1
4. CC(=O)N[C@H]1CC[C@H](Nc2nc(NCc3ccc(-c4ccccc4)nc3)c3ncn(C(C)C)c3n2)CC1

OUT:
["< 5 nM", "32000 nM", "1600 nM", "< 10 nM"]

* * *

Consider the following compounds; for each one, report its melting point.

# example entries with known answers
smiles.notation	melting point
CCCn1cnc2c(NCc3ccc(-c4ccccc4)cc3)nc(N[C@H]3CC[C@H](N)CC3)nc21	133 to 138 °C
CC(C)n1cnc2c(NCc3ccc(-c4cccc(C(=O)O)c4)cc3)nc(N[C@H]3CC[C@H](N)CC3)nc21	205 to 208 °C
COc1cccc(-c2ccc(CNc3nc(N[C@H]4CC[C@H](NC(C)=O)CC4)nc4c3ncn4C(C)C)cn2)c1	161 to 163 °C

Short answer for CCCN[C@H]1CC[C@H](Nc2nc(NCc3ccc(-c4ccc(C)s4)cc3)c3ncn(C(C)C)c3n2)CC1 : melting point was 150 to 155 °C
